# target.of.assay: recombinant PIM-1 (Homo sapiens)
# assay: PIM-1 kinase assay
# Type: biochemical
# run.conditions: 500 nM compound; read-out: PIM1: % inh 500 nM
inhibition at 0.5 µM: recorded values
Please give a number only; it is taken to be in %.

- CC(=O)N1CCN(C(=O)c2ccc3c(c2)[nH]c(=O)c2cccn23)CC1: -8.35

Q: State measured inhibition at 0.5 µM of the molecule c1ccc(CNc2nc3cc(-c4nnn[nH]4)ccc3n3cccc23)cc1 with recombinant PIM-1 (Homo sapiens).
A: 14.4

Q: State inhibition at 0.5 µM (recombinant PIM-1 (Homo sapiens)) of FC(F)(F)c1cccc(Nc2nc3cc(-c4nnn[nH]4)ccc3n3cccc23)c1 .
A: 45.2

Q: Please report the measured inhibition at 0.5 µM for CC(C)(C)OC(=O)N1CCCN(C(=O)c2ccc3c(c2)[nH]c(=O)c2cccn23)CC1 tested on recombinant PIM-1 (Homo sapiens).
A: -46.9

---

# target.of.assay: recombinant PIM-1 (Homo sapiens)
# assay: PIM-1 kinase assay
# Format: biochemical
# run.conditions: 500 nM compound; read-out: PIM1: % inh 500 nM
Entries and their inhibition at 0.5 µM
Just the number in %, nothing appended.

* CN(c1cccc(Cl)c1)c1nc2cc(C(=O)O)ccc2n2cccc12 | 49.7

Q: Would you please give the reported inhibition at 0.5 µM of N#Cc1ccc2c(c1)nc(NCCN1CCCC1)c1cccn12 with recombinant PIM-1 (Homo sapiens)?
A: 10.3

Q: // fetch inhibition at 0.5 µM for CN1CCCC(Nc2nc3cc(C(=O)O)ccc3n3cccc23)C1 (stereo not drawn) ; system: recombinant PIM-1 (Homo sapiens)
A: 69.5

---

# target.of.assay: recombinant PIM-1 (Homo sapiens)
# assay: PIM-1 kinase assay
# Type: biochemical
# run.conditions: 500 nM compound; read-out: PIM1: % inh 500 nM
Where inhibition at 0.5 µM equals or exceeds 80%, the correct label is Yes; where it does not, the label is No.

Q: Dear colleague, could you confirm whether CN(C)CCNc1nc2cc(C(=O)O)ccc2n2cccc12 has inhibition at 0.5 µM at or above 80%?
A: No

---

# Test system: MV-4-11
# assay: Alamar Blue cell proliferation assay, MV-4-11
# Assay type: cell-based
# run.conditions: Homo sapiens, MV4-11; Table 5
pIC50: −log10 of the molar value.
measurement.name: pIC50

- Clc1cccc(Nc2nc3c(-c4nnc[nH]4)cccc3n3cccc23)c1: > 5.30
- Clc1ccccc1Nc1nc2c(-c3nnc[nH]3)cccc2n2cccc12: > 5.30
- Fc1ccccc1Nc1nc2c(-c3nnc[nH]3)cccc2n2cncc12: > 6.00
- c1ccc(Nc2nc3c(-c4nnc[nH]4)cccc3n3cccc23)cc1: > 5.30

Q: Return pIC50 (reported value) for this compound: Oc1cccc(Nc2nc3c(-c4nnc[nH]4)cccc3n3cccc23)c1
A: > 5.30

Q: Give the value of pIC50 reported for the following: O=C(NC1CC1)c1cccc2c1nc(Nc1ccccc1F)c1cccn12
A: > 5.00

Q: State, in one line, measured pIC50 of Fc1ccccc1Nc1nc2c(-c3nnc[nH]3)cccc2n2cccc12
A: > 5.30

Q: Name the recorded pIC50 of the compound listed here: Fc1ccc(Nc2nc3c(-c4nnc[nH]4)cccc3n3cccc23)c(F)c1
A: > 5.30

---

# target.of.assay: recombinant human CK2 (Homo sapiens, UniProt P68400)
# Sequence (P68400 whole entry): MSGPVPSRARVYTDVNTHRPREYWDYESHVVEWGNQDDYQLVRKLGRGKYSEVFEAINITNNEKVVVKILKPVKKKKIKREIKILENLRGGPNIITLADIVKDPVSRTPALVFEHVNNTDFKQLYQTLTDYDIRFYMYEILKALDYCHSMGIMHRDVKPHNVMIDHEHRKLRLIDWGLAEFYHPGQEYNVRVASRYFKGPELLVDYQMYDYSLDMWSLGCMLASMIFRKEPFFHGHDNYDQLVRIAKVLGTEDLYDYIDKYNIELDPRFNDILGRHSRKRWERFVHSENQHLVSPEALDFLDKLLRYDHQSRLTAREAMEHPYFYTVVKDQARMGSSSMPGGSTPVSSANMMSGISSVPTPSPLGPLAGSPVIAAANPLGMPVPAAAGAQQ
# Sequence (P67870 whole entry partner): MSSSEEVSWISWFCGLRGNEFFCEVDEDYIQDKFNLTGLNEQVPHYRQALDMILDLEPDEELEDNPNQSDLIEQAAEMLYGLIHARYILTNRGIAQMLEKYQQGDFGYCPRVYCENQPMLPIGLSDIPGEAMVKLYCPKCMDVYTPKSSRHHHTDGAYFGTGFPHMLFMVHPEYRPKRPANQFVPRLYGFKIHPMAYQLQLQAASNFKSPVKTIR
# assay: cell-free CK2 assay
pIC50: −log10 of the molar value.
measurement.name: pIC50

Q: // fetch pIC50 given entry FC(F)(F)CCNc1nc2c(-c3nnc[nH]3)cccc2n2cccc12
A: > 5.30

---

# target.of.assay: recombinant PIM-1 (Homo sapiens)
# assay: PIM-1 kinase assay
# Format: biochemical
# run.conditions: 500 nM compound; read-out: PIM1: % inh 500 nM
// label = t if inhibition at 0.5 µM is not less than 80%, otherwise f

- c1ccc(Nc2nc3cc(-c4nnc[nH]4)ccc3n3cccc23)cc1: f
- Fc1cc(F)cc(Nc2nc3cc(-c4nnn[nH]4)ccc3n3cccc23)c1: f
- Clc1cccc(Nc2nc3cc(-c4nnn[nH]4)ccc3n3cccc23)c1: f
- O=C(O)c1ccc2c(c1)nc(Nc1cccc(Cl)c1)c1cccn12: t

# evaluate next
Q: // inclusive: inhibition at 0.5 µM at least 80%? input: CN(c1cccc(Cl)c1)c1nc2cc(-c3nnn[nH]3)ccc2n2cccc12
A: f

---

# target.of.assay: recombinant PIM-1 (Homo sapiens)
# assay: PIM-1 kinase assay
# Format: biochemical
# run.conditions: Table 5; read-out: PIM1 IC50
# Experimental: The following procedure was used to assay the PIM-1 kinase activity of compounds of the invention. Other methods for assaying PIM-1 and other PIM kinases, as well as methods to assay for activity against various kinases known in the art. In a final reaction volume of 50 ul, recombinant PIM-1 (1 ng) was incubated with 12 mM MOPS pH 7.0, 0.4 mM EDTA, glycerol 1%, brij 35 0.002%, 2-mercaptoethanol 0.02%, BSA 0.2 mg/ml, 100 uM KKRNRTLTK, 10 mM MgAcetate, 15 uM ATP, [γ-^33P-ATP] […]
pIC50: −log10 of the molar value.
measurement.name: pIC50

The cases that follow already have their pIC50 on record.
- CCOC(=O)c1cccc2c1nc(Nc1ccccc1F)c1cccn12: < 5.60
- FC(F)(F)CCNc1nc2c(-c3nnc[nH]3)cccc2n2cccc12: > 7.00
- c1cc(-c2nnc[nH]2)c2nc(NCC3CC3)c3cccn3c2c1: > 7.00
- OCc1cccc2c1nc(Nc1ccccc1F)c1cccn12: < 5.60
- O=c1[nH]c2c(-c3nnc[nH]3)cccc2n2cccc12: < 5.60

Q: Input c1ccc(Nc2nc3c(-c4nnc[nH]4)cccc3n3cccc23)cc1 , output reported pIC50.
A: > 7.00

Q: Give pIC50 for the following compound: Fc1ccc(Nc2nc3c(-c4nnc[nH]4)cccc3n3cccc23)c(Cl)c1
A: > 7.00

Q: Answer with the recorded pIC50 of CCOC(=O)c1cccc2c1nc(N(C(=O)OC(C)(C)C)c1ccccc1F)c1cccn12 only.
A: < 5.60

Q: Assign pIC50 to the following record: CCOC(=O)c1cccc2c1[nH]c(=O)c1cccn12
A: < 5.60

Q: In one line, give reported pIC50 of the entry c1cc(-c2nnc[nH]2)c2nc(Nc3nccs3)c3cccn3c2c1 .
A: > 5.30

Q: Identify measured pIC50 corresponding to O=C(NC1CC1)c1cccc2c1nc(Nc1ccccc1F)c1cccn12
A: > 7.00

Q: In one line, give reported pIC50 of the entry NC(=O)c1cccc2c1[nH]c(=O)c1cccn12 .
A: < 5.60

Q: Indicate its recorded pIC50; the compound in question is CC(C)(C)OC(=O)OCc1cccc2c1nc(N(C(=O)OC(C)(C)C)c1ccccc1F)c1cccn12
A: < 5.60

Q: Item O=C(O)c1cccc2c1nc(Nc1ccccc1F)c1cccn12 : provide pIC50
A: > 6.00

Q: Note down pIC50 recorded for c1cc(-c2nnc[nH]2)c2nc(NC3CC3)c3cccn3c2c1
A: > 7.00

---

# target.of.assay: recombinant human PIM2 (Homo sapiens, UniProt Q9P1W9)
# Sequence (Q9P1W9 whole entry): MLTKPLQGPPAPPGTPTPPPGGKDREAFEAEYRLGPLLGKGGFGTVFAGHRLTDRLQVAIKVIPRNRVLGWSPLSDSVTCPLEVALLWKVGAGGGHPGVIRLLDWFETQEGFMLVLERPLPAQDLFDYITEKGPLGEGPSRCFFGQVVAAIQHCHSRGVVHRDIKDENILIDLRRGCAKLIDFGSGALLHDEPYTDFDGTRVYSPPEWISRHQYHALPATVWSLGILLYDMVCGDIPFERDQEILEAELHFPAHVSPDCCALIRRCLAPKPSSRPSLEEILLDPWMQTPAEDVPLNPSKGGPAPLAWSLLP
# assay: PIM-2 kinase assay
# Procedure: Test compounds dissolved and diluted in DMSO (2 μl) were added to a reaction mixture comprising 10 μl of 5× Reaction Buffer (40 mM MOPS pH 7.0, 5 mM EDTA), 10 μl of recombinant human PIM2 solution (4 ng PIM-2 dissolved in dilution buffer (20 mM MOPS pH 7.0; EDTA 1 mM; 5% Glycerol; 0.01% Brij 35; […]; […] 2-mercaptoethanol; 1 mg/ml BSA)) and 8 ul of water. […]
pIC50: −log10 of the molar value.
Listed here are compounds together with their documented pIC50.

Q: Assign pIC50 to the following record: c1cc(-c2nnc[nH]2)c2nc(NC3CC3)c3cccn3c2c1
A: > 6.00

Q: Consider the compound O=C(NC1CC1)c1cccc2c1nc(Nc1ccccc1F)c1cccn12 . State its measured pIC50.
A: > 6.00

Q: For the compound O=c1[nH]c2c(-c3nnc[nH]3)cccc2n2cccc12 , report pIC50.
A: < 5.60

Q: # return recorded pIC50 for entry Fc1ccc(Nc2nc3c(-c4nnc[nH]4)cccc3n3cccc23)c(Cl)c1
A: > 7.00

Q: Provide only the value of recorded pIC50 for NC(=O)c1cccc2c1[nH]c(=O)c1cccn12
A: < 5.60

Q: Please report the measured pIC50 for CCOC(=O)c1cccc2c1[nH]c(=O)c1cccn12
A: < 5.60

Q: Hello, please tell me recorded pIC50 for this one: CCOC(=O)c1cccc2c1nc(Nc1ccccc1F)c1cccn12
A: < 5.60

Q: Name the recorded pIC50 of the item NC(=O)c1cccc2c1nc(Nc1ccccc1Cl)c1cccn12 in your answer.
A: > 6.00

---

# target.of.assay: recombinant PIM-1 (Homo sapiens, UniProt P11309)
# Sequence (P11309 whole entry): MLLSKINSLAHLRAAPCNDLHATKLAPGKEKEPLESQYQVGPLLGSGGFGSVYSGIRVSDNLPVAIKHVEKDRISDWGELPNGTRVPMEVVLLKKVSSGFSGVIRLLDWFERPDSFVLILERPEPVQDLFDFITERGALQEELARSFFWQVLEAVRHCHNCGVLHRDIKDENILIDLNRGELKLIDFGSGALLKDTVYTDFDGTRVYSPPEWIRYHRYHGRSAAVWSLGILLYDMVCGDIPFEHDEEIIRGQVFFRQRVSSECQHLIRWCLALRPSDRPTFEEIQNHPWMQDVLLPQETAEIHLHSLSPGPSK
# assay: PIM-1 kinase assay
# Format: biochemical
# run.conditions: 15 μM ATP; read-out: PIM1: IC50 (15 μM ATP)
Please respond with fulfilled when measured IC50 is strictly beneath 300 nM, and with not fulfilled in all other cases.

# example entries with known answers
• O=C(O)c1ccc2c(c1)nc(Nc1cccc(Cl)c1)c1cccn12 = fulfilled
• Clc1cccc(Nc2nc3cc(-c4nnn[nH]4)ccc3n3cccc23)c1 = fulfilled
• O=C(O)c1ccc2c(c1)nc(NCC(F)(F)F)c1cccn12 = not fulfilled
• Fc1ccc(Nc2nc3cc(-c4nnn[nH]4)ccc3n3cccc23)cc1Cl = not fulfilled
• CCN1CCCC1CNc1nc2cc(-c3nnn[nH]3)ccc2n2cccc12 (stereo not drawn) = fulfilled

Next up:
Q: Is 300 nM strictly greater than the compound's reported IC50? compound: CN1CCCC(Nc2nc3cc(C(=O)O)ccc3n3cccc23)C1 (stereo not drawn)
A: not fulfilled
